Each entry below carries its recorded melting point.

Input: Using the record for `CN(C)c1cccc(CCCc2ccc(Nc3ccccc3C(=O)O)cc2)c1` , report its melting point.
Output: 115 to 117 °C

Input: Try this compound too: `CC(=O)Nc1ccc(CCc2ccc(Nc3ccccc3C(=O)O)cc2)cc1`
Output: 224 °C

Input: Try this compound too: `O=C(O)c1cc([N+](=O)[O-])ccc1Nc1ccc(CCCCCc2ccc(Cl)c(Cl)c2)cc1`
Output: 147 to 148 °C

Input: Try this compound too: `O=C(O)c1ccccc1Nc1ccc(CCc2ccc(F)c(C(F)(F)F)c2)cc1`
Output: 148 to 150 °C

Input: Try this compound too: `CCCN(CCC)c1ccc(CCc2ccc(Nc3ccccc3C(=O)O)cc2)cc1.Cl`
Output: 176 to 177 °C

Input: Try this compound too: `Nc1ccc(CCCc2ccc(Nc3ccccc3C(=O)O)cc2)cc1`
Output: 110 to 112 °C

Input: Try this compound too: `O=C(O)c1cccc(Nc2ccc(CCc3ccc(Cl)c(Cl)c3)cc2)c1`
Output: 137 to 138 °C

Input: Try this compound too: `O=C(O)c1ccccc1Nc1ccc(CCCc2ccc(Cl)c(Cl)c2)cc1`
Output: 120 to 126 °C

Input: Try this compound too: `COc1ccc(Nc2ccc(CCCCc3ccc(Cl)c(Cl)c3)cc2)c(C(=O)O)c1`
Output: 155 to 158 °C

Input: Try this compound too: `O=C(O)c1ccccc1Nc1ccc(CCc2cc(Cl)cc(Cl)c2)cc1`
Output: 191 to 194 °C

Input: Try this compound too: `CN(C)c1ccc(N(C)c2ccc(CCc3ccc(Cl)c(Cl)c3)cc2)c(C(=O)O)c1`
Output: 128 to 131 °C

Input: Try this compound too: `O=C(O)c1ccccc1Nc1ccc(CCc2ccccc2Cl)cc1`
Output: 140 to 143 °C

###

target-or-test-system: Aβ(1-40) (Homo sapiens)
Construct: […]; purchased Bachem, Torrance, Calif
experiment: BASSR (Beta-Amyloid Self-Seeding Radioassay), inhibitors of self-seeded amyloid fibril growth
Format: biochemical
condition-set: 30 μM soluble Aβ(1-40) + 125I-labeled Aβ(1-40), 37° C., 3 to 5 hours; replicate values; letter = synthetic lot; ppt = precipitate; V-shaped = inhibition followed by precipitation
parameter: IC50

Example molecules with recorded IC50:
O=C(O)c1cc([N+](=O)[O-])cc([N+](=O)[O-])c1Nc1ccc(CCCCc2ccc(Cl)c(Cl)c2)cc1    20 µM
O=C(O)c1ccccc1Nc1ccc(CCc2ccc(Cl)c(Cl)c2)cc1 [Example 117, monosodium]    > 100 µM
CCCCN1CCc2cc(C=C3SC(=S)N(CC(=O)O)C3=O)ccc21    > 100 µM
CC(=O)Nc1ccc(CCCc2ccc(Nc3ccccc3C(=O)O)cc2)cc1    > 100 µM
CN(C)c1ccc(Nc2ccc(CCc3ccc(Cl)c(Cl)c3)cc2)c(C(=O)O)c1    > 100 µM

Input: Using the record for `CC(=O)Nc1ccc(CCc2ccc(Nc3ccccc3C(=O)O)cc2)cc1` , report its IC50.
Output: > 100 µM

Input: Try this molecule too: `O=C(O)c1cccc(Nc2ccc(CCc3ccc(Cl)c(Cl)c3)cc2)c1`
Output: > 100 µM

Input: Try this molecule too: `O=C(O)c1ccccc1Nc1ccc(CCc2cccc(N(Cc3ccccc3)Cc3ccccc3)c2)cc1`
Output: > 100 µM

Input: Try this molecule too: `O=C(O)c1ccccc1Nc1ccc(-c2ccc(Cl)c(Cl)c2)cc1`
Output: > 100 µM

Input: Try this molecule too: CCN(CC)c1cccc(CCc2ccc(Nc3ccccc3C(=O)O)cc2)c1.Cl [Example 41, monohydrochloride]
Output: > 100 µM

Input: Try this molecule too: `CCCCN1CCCc2cc(C=C3SC(=S)N(CC(=O)O)C3=O)ccc21`
Output: 12 µM

Input: Try this molecule too: `O=C(O)c1cc(F)ccc1Nc1ccc(CCc2ccc(Cl)c(Cl)c2)cc1`
Output: > 100 µM

Input: Try this molecule too: `Nc1ccc(CCc2ccc(Nc3ccccc3C(=O)O)cc2)cc1`
Output: > 100 µM

Input: Try this molecule too: `O=C(O)c1ccccc1Nc1ccc(CCCc2ccc(N3CCCC3)cc2)cc1`
Output: > 100 µM

Input: Try this molecule too: `Cc1cc(-c2cc(Br)cc(Br)c2)ccc1Nc1ccccc1C(=O)O`
Output: > 100 µM

Input: Try this molecule too: `O=C(O)c1ccc(Nc2ccc(CCc3ccc(Cl)c(Cl)c3)cc2)cc1`
Output: > 100 µM

Input: Try this molecule too: `O=C(O)c1ccccc1Nc1ccc(CCCc2cccc([N+](=O)[O-])c2)cc1`
Output: 3 µM

Input: Try this molecule too: `O=C(O)c1ccccc1Nc1ccc(-c2cc(Cl)cc(Cl)c2)cc1`
Output: > 100 µM

###

Each entry below carries its recorded IC50.
target-or-test-system: Aβ(1-40) (Homo sapiens)
Construct: […]; purchased Bachem, Torrance, Calif
experiment: BASST (Beta-Amyloid Self-Seeding, Thioflavin T), inhibitors of self-seeded amyloid fibril growth
Type: biochemical
condition-set: 30 μM soluble Aβ(1-40), 37° C., 3 to 5 hours, thioflavin T fluorescence; replicate values; letter = synthetic lot; read-out: BASST (IC50 = μM)
# number only, unit µM dropped from output

Example compounds with recorded IC50:
CCCNc1ccc(CCCc2ccc(Nc3ccccc3C(=O)O)cc2)cc1    0.8
COc1cc(Nc2ccc(CCCc3ccc(Cl)c(Cl)c3)cc2)c(C(=O)O)cc1[N+](=O)[O-]    2
O=C(O)c1ccccc1Nc1ccc(-c2ccc(Cl)cc2Cl)c(Cl)c1    18

Input: Using the record for `O=C(O)c1c(Nc2ccc(CCc3ccc(Cl)c(Cl)c3)cc2)cccc1C(F)(F)F` , report its IC50.
Output: 0.1

Input: Try this compound too: `CCCNc1cccc(CCCc2ccc(Nc3ccccc3C(=O)O)cc2)c1`
Output: 0.5

Input: Try this compound too: CCN(CC)c1cccc(CCc2ccc(Nc3ccccc3C(=O)O)cc2)c1.Cl [Example 41, monohydrochloride]
Output: 5

Input: Try this compound too: `CCCCN1CCCc2cc(C=C3SC(=S)N(CCCC(=O)O)C3=O)ccc21`
Output: 1

Input: Try this compound too: `CC(=O)Nc1cccc(CCCc2ccc(Nc3ccccc3C(=O)O)cc2)c1`
Output: 3

###

target-or-test-system: Aβ(1-40) (Homo sapiens)
Construct: […]; purchased Bachem, Torrance, Calif
experiment: BASST (Beta-Amyloid Self-Seeding, Thioflavin T), inhibitors of self-seeded amyloid fibril growth
Assay type: biochemical
condition-set: BASST (IC50 = μM)
Counter-ions that a name gives are not always drawn.
parameter: IC50 (µM)
# number only, unit µM dropped from output

Input: Using the record for CCN(CC)c1ccc(CCc2ccc(Nc3ccccc3C(=O)O)cc2)cc1 [Example 26, monohydrochloride monohydrate] , report its IC50.
Output: 1

###

target-or-test-system: Aβ (1-42) (Homo sapiens)
Construct: Required Aβ (1-42) (California Peptide) was dried from its hexafluoroisopropanol (HFIP) stock solution; purchased California Peptide
Sequence (P05067 672-713 limits assumed): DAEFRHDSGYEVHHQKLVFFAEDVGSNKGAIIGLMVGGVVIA
experiment: BATYM assay (Aβ (1-42) aggregation, Thioflavin T fluorescence)
Format: biochemical
condition-set: Aβ 1-42 final concentration 100 μM, 37° C., 1 day, letter = synthetic lot
Each entry below carries its recorded IC50.
# number only, unit µM dropped from output

O=C(O)c1cc([N+](=O)[O-])ccc1Nc1ccc(CCc2ccc(Cl)cc2)cc1    8.36
CCCN(CCC)c1ccc(CCc2ccc(Nc3ccccc3C(=O)O)cc2)cc1.Cl [Example 25, monohydrochloride]    21.1
CN(C)c1ccc(Nc2ccc(CCc3ccc(Cl)c(Cl)c3)cc2)c(C(=O)O)c1    24.8

Continue with the compound presented below.
Input: Using the record for `CCN(CC)c1cccc(CCCc2ccc(Nc3ccccc3C(=O)O)cc2)c1` , report its IC50.
Output: 29.2

###

Each entry below carries its recorded IC50.
target-or-test-system: Aβ(1-40) (Homo sapiens, UniProt P05067)
Construct: […]; purchased Bachem, Torrance, Calif
Sequence (P05067 672-711 limits assumed): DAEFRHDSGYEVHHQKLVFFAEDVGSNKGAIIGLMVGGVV
experiment: BASSR (Beta-Amyloid Self-Seeding Radioassay), inhibitors of self-seeded amyloid fibril growth
Format: biochemical
condition-set: 30 μM soluble Aβ(1-40) + 125I-labeled Aβ(1-40), 37° C., 3 to 5 hours; replicate values; letter = synthetic lot; ppt = precipitate; V-shaped = inhibition followed by precipitation

Example compounds with recorded IC50:
O=C(O)c1ccc(CCCc2ccc(Nc3ccccc3C(=O)O)cc2)cc1 [Example 49]    > 100 µM
CN(c1ccc(CCc2ccc(Cl)c(Cl)c2)cc1)c1ccccc1C(=O)O [Example 148]    > 100 µM
O=C(O)c1ccccc1Nc1ccc(CCCc2ccc(N3CCCCC3)cc2)cc1 [Example 47]    > 100 µM
O=C(O)c1ccccc1Nc1ccc(CCCCCc2ccc(Cl)c(Cl)c2)cc1 [Example 135]    > 100 µM

Input: Recorded IC50 for O=C(O)c1ccccc1Nc1ccc(CCCc2ccc([N+](=O)[O-])cc2)cc1 [Example 20] with Aβ(1-40) (Homo sapiens, UniProt P05067), please?
Output: 4.2 µM

Input: Try this compound too: Nc1cccc(CCc2ccc(Nc3ccccc3C(=O)O)cc2)c1 [Example 33]
Output: > 100 µM

Input: Try this compound too: O=C(O)c1ccccc1Nc1ccc(CCc2ccc(F)c(F)c2)cc1 [Example 122]
Output: > 100 µM

Input: Try this compound too: CN(C)c1ccc(CCCc2ccc(Nc3ccccc3C(=O)O)cc2)cc1 [Example 34]
Output: 45 µM

Input: Try this compound too: CCCNc1cccc(CCCc2ccc(Nc3ccccc3C(=O)O)cc2)c1 [Example 52]
Output: 75 µM
